- protocol: D54 reporter luminescence gain compounds – D54 ERlucT cells, set 2, N-linked glycosylation inhibitor project, primary screen (AID 588692);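 also: luciferase carries N-glycosylation sites so blocking glycosylation raises the light; 0% = median of neutral control wells and 100% = median of 100 nM tunicamycin wells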
- conditions: D54 ERlucT glycosylation luciferase reporter, 24 h; at 12.5 µM; active compounds read high; percent of 100 nM tunicamycin response
Screen size: about 360,000 compounds; about 830 (0.23%) were called active. The full list was thinned out, with actives kept by preference.

compound	reporter increase
COc1ccc(-c2ccc(CN3C(CC(C)C)C(=O)N(Cc4cn(CC5CCCCC5)nn4)CCS3(=O)=O)cc2)cn1 (stereo not given)	4.1% (inactive)
O=C(Nc1ccc(Cl)cc1)C1Cc2c(-c3ccc4c(c3)OCO4)ccnc2O1 (stereo not given)	1.69% (inactive)
CCCNC(=O)C1(C)CCN(C(=O)c2cc(F)ccc2C)C1 (stereo not given)	-0.06% (inactive)
O=C1C(C=NCC2CCCO2)=C(O)c2ccccc21 (stereo not given)	-4.51% (inactive)
C=CCN1C(=O)c2ccc(C(=O)N3CCC(C(=O)OCC)CC3)cc2C1=O	0.619% (inactive)
Cc1cc(C)c2c(=O)n3c(nc2c1)C(CC(C)C)NC(=O)c1cc2ccccc2cc1-3 (stereo not given)	-7.33% (inactive)
Cc1cccc(NC(=O)C(C)N2C(=O)C3C4CC(C(Br)C4Br)C3C2=O)c1 (stereo not given)	2.15% (inactive)
Cc1ccccc1NC(=O)c1ccc(COc2ccc3c(C)cc(=O)oc3c2)cc1	-2.09% (inactive)
Cc1cccc(C)c1NC(=O)Nc1ccccc1-n1ccnc1	0.968% (inactive)
O=C(Nc1ccccc1F)c1ccc(S(=O)(=O)N2CCCCCC2)cc1	-0.684% (inactive)
C[C@H](CO)N1C[C@H](C)[C@H](CN(C)CC2CC2)Oc2ccc(NC(=O)CCN3CCOCC3)cc2C1=O	1.29% (inactive)
CC(=O)NC(Cc1ccc(F)c(F)c1)C(=O)NC1CCN(c2nnnn2-c2ccccc2)CC1 (stereo not given)	0.485% (inactive)
Cc1ccccc1Nc1nc(N)nc(CN2CCN(c3ccccn3)CC2)n1	1.95% (inactive)
O=C1c2cccc3c([N+](=O)[O-])ccc(c23)C(=O)N1CC1CCCO1 (stereo not given)	29.4% (active)
O=C1/C(=C\c2ccc(O)cc2)CCC1CNc1ccc(Cl)cc1 (stereo not given)	10.4% (inactive)
CN(NC(=O)C1CC(=O)N(c2ccccc2)C1)C1=NS(=O)(=O)c2ccccc21 (stereo not given)	1.73% (inactive)
CCCC(=O)Nc1nc2ccc(NC(=O)c3c(F)c(F)c(OC)c(F)c3F)cc2s1	45.8% (active)
COc1cc(OC)c2c(-c3cccc(-c4cccc(N)c4)c3)cc(=O)oc2c1	4.55% (inactive)
Cn1cnc2c1c(=O)n(Cc1ccccc1C#N)c(=O)n2C	1.69% (inactive)
COCCNc1ncnc2c1ncn2[C@H]1CN(Cc2ccc(OC)cc2)C[C@@H](CO)O1	0.218% (inactive)
COc1ccc(N2CCN(S(=O)(=O)c3cc4c5c(c3)C(C)C(=O)N5CCC4)CC2)cc1 (stereo not given)	-1.71% (inactive)
COc1cc(C(=S)N2CCOCC2)cc(OC)c1OC(=O)c1cc([N+](=O)[O-])c(C)c([N+](=O)[O-])c1	1.27% (inactive)
NNC(=O)CNC(c1ccccc1)c1cc(Cl)ccc1NC(=O)c1ccccc1 (stereo not given)	-3.39% (inactive)
O=C(N/N=C/C=C/c1ccccc1)C1CC1(c1ccccc1)c1ccccc1 (stereo not given)	-0.496% (inactive)
NC(=O)CC(NC(=O)Cc1cccc2ccccc12)c1ccc(NCc2cc(F)ccc2F)c([N+](=O)[O-])c1 (stereo not given)	16% (inactive)
COc1ccc(Cl)cc1NS(=O)(=O)c1cccc(C(=O)NC2CCC(O)CC2)c1 (stereo not given)	-1% (inactive)
CCCn1nc(C(=O)Nc2ccc3nc(C)sc3c2)c2ccccc2c1=O	-5.69% (inactive)
CCc1c(C)n([O-])c2c([n+]1=O)CCCCC2	2% (inactive)
CSCCC(C(=O)NC1=NCCS1)N1C(=O)c2ccccc2C1=O (stereo not given)	-0.003% (inactive)
CC[C@H]1OC(=O)[C@H](C)[C@@H](O[C@H]2C[C@@](C)(OC)[C@@H](O)[C@H](C)O2)[C@H](C)[C@@H](O[C@@H]2O[C@H](C)C[C@H](N(C)C)[C@H]2O)[C@](C)(O)C[C@@H](C)[C@@H]2N[C@@H](COCCOC)O[C@H]([C@H]2C)[C@]1(C)O	0.0685% (inactive)
CC1(C)O[C@@H]2[C@H](O1)[C@@H](COS(=O)(=O)O)O[C@H]2n1ccc(=O)[nH]c1=O	2.9% (inactive)
CC/C(=N\NC(=O)c1c(C)nc2ccccn12)c1ccc(Cl)cc1	-0.008% (inactive)
C=CCN(CC=C)S(=O)(=O)c1ccc(C(=O)Nc2nc3c(s2)CCc2ccccc2-3)cc1	55.6% (active)
COc1ccc(OC)c2[nH]c(=O)c(CCNC(=O)C(=O)c3c[nH]c4ccccc34)cc12	-0.931% (inactive)
CC(NCc1cccs1)C(=O)Nc1cc(Cl)cc(Cl)c1 (stereo not given)	0.0655% (inactive)
Cc1cc(C)c2nc3nc(C)cc(C)c3c(N)c2c1	79% (active)
O=C(Cc1ccccc1)Nc1ccc(C(=O)Nc2ccccc2C(=O)O)cc1	1.55% (inactive)
Cc1cccc(C(=O)NCc2nnc(SC(C)C(=O)Nc3nnc(C)s3)n2C)c1 (stereo not given)	-0.286% (inactive)
CC(=O)NCC(=O)N(Cc1ccco1)C1(C(=O)NC2CCCC2)CCCCC1	-0.741% (inactive)
CC(=O)NC(c1ccccc1)c1nc(-c2ccccc2C)cs1 (stereo not given)	11.9% (inactive)
